minimal effective dose: recorded values
Tested on: Plasmodium berghei KBG 173
Assay: Blood schizonticidal antimalarial test in mice infected with Plasmodium berghei
Settings: Plasmodium berghei, in Mus musculus, sc, 1440 h, read-out: Min. Curing Dose
From the text: Test animals weigh from 18 to 22 grams but weight variations in any given experimental or control group are confined to 2-3 grams. All animals in any given test are approximately of the same age. Animals on test are housed in metal-topped plastic cages, given a standard laboratory diet and water ad libitum. […]

| smiles-repr | minimal effective dose / mg/kg |
| --- | --- |
| Cc1ccc(C)c(S(=O)(=O)n2ccc3c4c(N)nc(N)nc4ccc32)c1 | 20 |
| Nc1nc(N)c2c(ccc3c2ccn3S(=O)(=O)c2ccccc2)n1 | 40 |
| CC(C)(C)c1ccc(S(=O)(=O)n2ccc3c4c(N)nc(N)nc4ccc32)cc1 | 20 |
| Cc1ccc(S(=O)(=O)n2ccc3c4c(N)nc(N)nc4ccc32)cc1 | 20 |
| CC(=O)Nc1ccc(S(=O)(=O)n2ccc3c4c(N)nc(N)nc4ccc32)cc1 | 10 |
| Nc1nc(N)c2c(ccc3c2ccn3S(=O)(=O)c2cccc(C(F)(F)F)c2)n1 | 10 |
| COc1ccc(S(=O)(=O)n2ccc3c4c(N)nc(N)nc4ccc32)cc1 | 40 |
| Nc1nc(N)c2c(ccc3c2ccn3S(=O)(=O)c2ccc([N+](=O)[O-])cc2)n1 | 640 |
| Nc1nc(N)c2c(ccc3c2ccn3S(=O)(=O)c2ccc3ccccc3c2)n1 | 20 |

----------
Experiment: Blood schizonticidal antimalarial test in mice infected with Plasmodium berghei
Conditions: mouse, in vivo, sc
readout-kind: MTD at 1440 h

| compound | reported-measurement |
| --- | --- |
| COc1ccc(S(=O)(=O)n2ccc3c4c(N)nc(N)nc4ccc32)cc1 [Example 6] | 640 mg/kg |
| CC(C)(C)c1ccc(S(=O)(=O)n2ccc3c4c(N)nc(N)nc4ccc32)cc1 [Example 12] | 640 mg/kg |
| CC(=O)Nc1ccc(S(=O)(=O)n2ccc3c4c(N)nc(N)nc4ccc32)cc1 [Example 11] | 320 mg/kg |
| Cc1ccc(C)c(S(=O)(=O)n2ccc3c4c(N)nc(N)nc4ccc32)c1 [Example 2] | 160 mg/kg |
| Cc1ccc(S(=O)(=O)n2ccc3c4c(N)nc(N)nc4ccc32)cc1 [Example 5] | 640 mg/kg |
| Nc1nc(N)c2c(ccc3c2ccn3S(=O)(=O)c2cccc(C(F)(F)F)c2)n1 [Example 9] | 160 mg/kg |
| Nc1nc(N)c2c(ccc3c2ccn3S(=O)(=O)c2ccc(Cl)c(Cl)c2)n1 [Example 7] | 640 mg/kg |
| Nc1nc(N)c2c(ccc3c2ccn3S(=O)(=O)c2ccc(Cl)cc2)n1 [Example 8] | 160 mg/kg |

----------
Test system: E. coli 9637
Test: In vitro antibacterial activity, MIC by agar dilution
Format: cell-based
Conditions: Escherichia coli, 9637; Wellcotest Sensitivity Test Agar, 5% hemolyzed horse blood, 18 hours at 35° C.; read-out: MIC, E. coli 9637
readout-kind: MIC (µg/mL)

| smiles-repr | target | readout-unit | qual | reported-measurement |
| --- | --- | --- | --- | --- |
| COc1ccc(S(=O)(=O)n2ccc3c4c(N)nc(N)nc4ccc32)cc1 | E. coli 9637 | µg/mL | > | 250 |
| Nc1nc(N)c2c(ccc3c2ccn3S(=O)(=O)c2ccccc2)n1 | E. coli 9637 | µg/mL | = | 3.9 |
| Nc1nc(N)c2c(ccc3c2ccn3S(=O)(=O)c2ccc(Cl)cc2)n1 | E. coli 9637 | µg/mL | > | 250 |
| CC(C)(C)c1ccc(S(=O)(=O)n2ccc3c4c(N)nc(N)nc4ccc32)cc1 | E. coli 9637 | µg/mL | = | 250 |
| Nc1nc(N)c2c(ccc3c2ccn3S(=O)(=O)c2ccc(Cl)c(Cl)c2)n1 | E. coli 9637 | µg/mL | > | 250 |

----------
System: Plasmodium berghei KBG 173
Experiment: Blood schizonticidal antimalarial test in mice infected with Plasmodium berghei
Conditions: Plasmodium berghei, in Mus musculus, sc, 1440 h, read-out: Lowest Dose Curing All Mice
Description: Test animals weigh from 18 to 22 grams but weight variations in any given experimental or control group are confined to 2-3 grams. All animals in any given test are approximately of the same age. Animals on test are housed in metal-topped plastic cages, given a standard laboratory diet and water ad libitum. […]
ED100: recorded values

| compound | ED100 [mg/kg] |
| --- | --- |
| COc1ccc(S(=O)(=O)n2ccc3c4c(N)nc(N)nc4ccc32)cc1 [Example 6] | 160 |
| Cc1ccc(C)c(S(=O)(=O)n2ccc3c4c(N)nc(N)nc4ccc32)c1 [Example 2] | 40 |
| CC(=O)Nc1ccc(S(=O)(=O)n2ccc3c4c(N)nc(N)nc4ccc32)cc1 [Example 11] | 20 |
| Nc1nc(N)c2c(ccc3c2ccn3S(=O)(=O)c2cccc(C(F)(F)F)c2)n1 [Example 9] | 40 |
| Cc1ccc(S(=O)(=O)n2ccc3c4c(N)nc(N)nc4ccc32)cc1 [Example 5] | 80 |
| CC(C)(C)c1ccc(S(=O)(=O)n2ccc3c4c(N)nc(N)nc4ccc32)cc1 [Example 12] | 40 |

----------
Test system: E. coli 9637
Assay: In vitro antibacterial activity, MIC by agar dilution
Type: cell-based
Conditions: Escherichia coli, 9637; Wellcotest Sensitivity Test Agar, 5% hemolyzed horse blood, 18 hours at 35° C.; read-out: MIC, E. coli 9637

| smiles-repr | MIC |
| --- | --- |
| Nc1nc(N)c2c(ccc3c2ccn3S(=O)(=O)c2cccc(C(F)(F)F)c2)n1 | > 250 µg/mL |
| CC(=O)Nc1ccc(S(=O)(=O)n2ccc3c4c(N)nc(N)nc4ccc32)cc1 | > 250 µg/mL |
| Nc1nc(N)c2c(ccc3c2ccn3S(=O)(=O)c2ccc3ccccc3c2)n1 | > 250 µg/mL |
| Nc1nc(N)c2c(ccc3c2ccn3S(=O)(=O)c2ccc([N+](=O)[O-])cc2)n1 | 7.81 µg/mL |
| Cc1ccc(S(=O)(=O)n2ccc3c4c(N)nc(N)nc4ccc32)cc1 | > 250 µg/mL |
